test: Half life in dog; type: ADME, organism-based, Canis lupus familiaris; conditions: in vivo
PROPERTY_NAME: half-life (h)
Only the number, expressed in h, is required.

Recorded half-life of `C/C(=C\c1cc(F)c(OC[C@H](F)C2CC2)cc1F)C(=O)N[C@@H]1[C@H](O)[C@@H](O)[C@H]2OCO[C@H]2[C@@H]1O` , please. 1.9

---

assay: Clearance in mouse; type: ADME, organism-based; settings: in vivo
PROPERTY_NAME: clearance (mL/min/kg)
Only the number, expressed in mL/min/kg, is required.

Recorded clearance of `C/C(=C\c1cc(F)c(OC[C@H](F)C2CC2)cc1F)C(=O)N[C@@H]1[C@H](O)[C@@H](O)[C@H]2OCO[C@H]2[C@@H]1O` , please. 12.1
